biological target: WDR5 (Homo sapiens); construct: hexahistidine-SUMO (N, cleaved yes); made in house; host or cells: E. coli BL21-CodonPlus-RIL; assay: SPR binding of compounds to captured biotinylated WDR5, 1:1 steady-state affinity fit; conditions: Table III, ether-derivatized 2; SPR; mean ± SE (SE not reported where n = 1)
PROPERTY NAME: Kd

Consider the following illustrative entries.
> print(dat)
                                   compound  property.name  reported.value
1         Cc1nc(COC(C)C)c[nH]1 [Compound 9]             Kd       > 3000 µM
2  Cc1nc(CO)c[nH]1 [Compound 2, (2-methyl-imidazol-4-yl)methanol]             Kd          260 µM
3             COCc1c[nH]c(C)n1 [Compound 7]             Kd       > 3000 µM
4    Cc1nc(COCc2ccccc2)c[nH]1 [Compound 11]             Kd          950 µM
5    Cc1nc(COCC(F)(F)F)c[nH]1 [Compound 10]             Kd       > 3000 µM

# Kd of CCCOCc1c[nH]c(C)n1 [Compound 8, 2-methyl-4-(propoxymethyl)-1H-imidazole] = > 3000 µM
